Cited source for all entries: patent US11731973B2

# ASSAYED_SYSTEM: UniProt P42345
# TEST_NAME: mTORC1 inhibitory activity: phosphorylation of S6RP in A431 cells (HTRF)
# ASSAY_CONTEXT: 3 hours at 37° C.
ASSAY_METRIC: IC50 (nM)
Only the number, expressed in nM, is required.

These solved cases illustrate the format of a correct answer.
| LINE_NOTATION | IC50, nM |
| --- | --- |
| CC(C)n1nc(-c2ccc3oc(N)nc3c2)c2c(Cl)nc(N)nc21 | 8.4 |
| CC(C)(CO)Cn1nc(-c2ccc3oc(N)nc3c2)c2c(N)nc(N)nc21 | 1.7 |

Data point: CSC(C)(C)Cn1nc(-c2ccc3oc(N)nc3c2)c2c(N)nc(N)nc21 ; IC50 = 2.2

The recorded IC50 for entry C#CC(C)(C)Cn1nc(-c2ccc3oc(N)nc3c2)c2c(N)nc(N)nc21 equals 1.2

For reference, reported IC50 for CC(C)n1nc(-c2ccc3oc(N)nc3c2)c2c(N)nc(N)nc21 stands at 3.8
